Where these numbers come from: ChEMBL document CHEMBL6103629

# assay-explanation: Drug distribution in Sprague-Dawley rat brain at 5 mg/kg, IG administrated as single dose measured after 0.5 hrs by LC-MS/MS analysis
# Type: ADME, organism-based
# experimental-context: po, read-out: Ct
endpoint: concentration at 0.5 h
I'd appreciate it if you included the unit after the number.

I am curious: what concentration at 0.5 h value has been reported for Cc1nn(-c2cccnc2)c(C)c1-c1cc(N2CC3CCC(C2)O3)nc2c(-c3ccn[nH]3)cnn12.O=C(O)/C=C/C(=O)O ? 4.47 ng/g

====

# test-system: Cytochrome P450 1A2 (Homo sapiens, UniProt P05177)
# Sequence (P05177 whole entry): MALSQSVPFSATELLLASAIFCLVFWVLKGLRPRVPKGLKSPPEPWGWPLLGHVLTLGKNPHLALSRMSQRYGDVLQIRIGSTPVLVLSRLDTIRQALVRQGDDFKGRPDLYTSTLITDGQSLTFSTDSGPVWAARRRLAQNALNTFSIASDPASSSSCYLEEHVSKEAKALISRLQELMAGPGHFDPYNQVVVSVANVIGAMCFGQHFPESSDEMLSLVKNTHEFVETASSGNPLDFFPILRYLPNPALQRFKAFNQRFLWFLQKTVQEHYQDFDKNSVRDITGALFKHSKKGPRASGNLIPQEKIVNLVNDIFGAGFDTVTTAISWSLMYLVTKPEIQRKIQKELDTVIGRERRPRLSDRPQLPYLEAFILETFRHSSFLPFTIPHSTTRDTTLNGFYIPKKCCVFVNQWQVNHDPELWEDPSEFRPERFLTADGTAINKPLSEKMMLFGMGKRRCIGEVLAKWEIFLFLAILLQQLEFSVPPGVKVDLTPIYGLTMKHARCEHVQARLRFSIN
pIC50: −log10 of the molar value.
endpoint: pIC50

Can you share its pIC50? I mean this compound: Cc1nn(-c2cccnc2)c(C)c1-c1cc(N2CC3CCC(C2)O3)nc2c(-c3ccn[nH]3)cnn12.O=C(O)/C=C/C(=O)O < 4.00
